Entry source: ChEMBL document CHEMBL1828576

# PROCEDURE SUMMARY: Inhibition of baker's yeast alpha-glucosidase assessed as residual hydrolysis of p-nitrophenyl-alpha-D-glucopyranoside pre-incubated for 1 hr by Lineweaver-Burk plot analysis
# Set-up: species or system Saccharomyces cerevisiae
OBSERVED PROPERTY: Ki

STRUCTURE SMILES STRING	READING
OCC[C@@H]1CNC[C@H](O)[C@@H](O)[C@@H]1O	131 µM

----------
# PROCEDURE SUMMARY: Inhibition of Geobacillus toebii BK1 alpha-galactosidase assessed as residual hydrolysis of p-nitrophenyl-alpha-D-galactopyranoside pre-incubated for 1 hr by spectrometric analysis
OBSERVED PROPERTY: IC50 (µM)

STRUCTURE SMILES STRING	READING
OCC[C@@H]1CNC[C@@H](O)[C@@H]1O	65
CN1C[C@@H](CCO)[C@@H](O)[C@H](O)C1	50

----------
# PROCEDURE SUMMARY: Inhibition of sweet almond beta-glucosidase
# Design: species or system Prunus dulcis
pKi: −log10 of the molar value.
OBSERVED PROPERTY: pKi

STRUCTURE SMILES STRING	OBSERVED PROPERTY	READING
OC[C@H]1CNC[C@@H](O)[C@@H]1O	pKi	6.96

----------
# PROCEDURE SUMMARY: Inhibition of baker's yeast alpha-glucosidase assessed as residual hydrolysis of p-nitrophenyl-alpha-D-glucopyranoside pre-incubated for 1 hr by spectrometric analysis
# Set-up: species or system Saccharomyces cerevisiae
OBSERVED PROPERTY: IC50 (µM)

STRUCTURE SMILES STRING	OBSERVED PROPERTY	READING
OCC[C@@H]1CNC[C@H](O)[C@@H](O)[C@@H]1O	IC50	675
